Data provenance: ChEMBL document CHEMBL3988442

Below, each of the molecules is paired with its reported Percent Effect value.
- system_tested: Ubiquitin-activating enzyme e1, putative (Leishmania donovani (strain BPK282A1)) (UniProt E9BSI1)
- Sequence (E9BSI1 as listed by the source): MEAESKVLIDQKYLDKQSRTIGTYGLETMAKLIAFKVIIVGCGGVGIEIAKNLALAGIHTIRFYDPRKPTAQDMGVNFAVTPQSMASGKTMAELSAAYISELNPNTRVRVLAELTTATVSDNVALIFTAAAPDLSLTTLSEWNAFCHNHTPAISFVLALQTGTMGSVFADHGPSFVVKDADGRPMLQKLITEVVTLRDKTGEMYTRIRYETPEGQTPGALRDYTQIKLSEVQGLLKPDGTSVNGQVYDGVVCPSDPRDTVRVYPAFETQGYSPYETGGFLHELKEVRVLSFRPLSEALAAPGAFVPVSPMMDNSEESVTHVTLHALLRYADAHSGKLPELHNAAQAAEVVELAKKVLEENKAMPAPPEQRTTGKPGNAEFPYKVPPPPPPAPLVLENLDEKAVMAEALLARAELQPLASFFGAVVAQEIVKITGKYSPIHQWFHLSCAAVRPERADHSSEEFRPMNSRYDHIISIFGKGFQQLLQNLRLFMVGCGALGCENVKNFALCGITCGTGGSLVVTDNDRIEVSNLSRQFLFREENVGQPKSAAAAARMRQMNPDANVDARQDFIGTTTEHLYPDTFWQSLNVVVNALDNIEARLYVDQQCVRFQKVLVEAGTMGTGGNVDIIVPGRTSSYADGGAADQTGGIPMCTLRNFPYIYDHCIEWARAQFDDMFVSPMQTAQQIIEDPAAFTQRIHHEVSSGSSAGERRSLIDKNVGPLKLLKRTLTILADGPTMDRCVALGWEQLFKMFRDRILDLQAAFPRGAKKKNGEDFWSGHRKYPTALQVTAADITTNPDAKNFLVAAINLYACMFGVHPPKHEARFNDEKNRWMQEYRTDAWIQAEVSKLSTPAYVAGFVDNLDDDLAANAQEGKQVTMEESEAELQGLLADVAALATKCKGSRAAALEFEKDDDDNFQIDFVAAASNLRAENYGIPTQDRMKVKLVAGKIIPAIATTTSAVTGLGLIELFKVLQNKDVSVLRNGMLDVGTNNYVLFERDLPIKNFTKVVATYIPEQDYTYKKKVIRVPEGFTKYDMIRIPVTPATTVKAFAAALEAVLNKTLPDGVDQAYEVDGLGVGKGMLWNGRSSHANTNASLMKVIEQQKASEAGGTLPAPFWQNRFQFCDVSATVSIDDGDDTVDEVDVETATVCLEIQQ
- experiment_summary: Leishmania donovani Ubiquitin Activating Enzyme (LdE1)
- Format: functional
- Set-up: scale not given: direction of the effect not stated beside the values
- run_parameters: 30 µM
Potency and affinity values are given separately.

Examples with their reported Percent Effect follow.
molecule	endpoint_result
CN(C)CCCNC(=O)CNC(=O)N1CCc2c([nH]c3ccccc23)C1	-1.33%
CCc1c(C)nc2n(c1=O)CC(C(=O)Nc1ccccc1F)CS2 (stereo not drawn)	18.2%

Next, consider the following molecule.
Task: Identify measured Percent Effect associated with `CC(C)c1cc(NC(=O)CN2CCc3ccccc3C2)on1`
Output: 28.6%
